- SYSTEM: DIPY binding site of TSPO (Homo sapiens, UniProt P30536)
- METHOD: Frontal displacement on MMAC-
REPORTED_METRIC: Ki (µM)
Supply the numeric figure in µM, leaving out any unit text.

C=CC1=C(C)c2cc3[nH]c(cc4nc(cc5[nH]c(cc1n2)c(C)c5CCC(=O)O)C(CCC(=O)O)=C4C)c(C)c3C=C = 3.33

// moving on: another record for Ki
Challenge: What value of Ki has been reported for the following molecule? C=C(C)[C@H]1Cc2c(ccc3c2O[C@@H]2COc4cc(OC)c(OC)cc4[C@@H]2C3=O)O1
Response given: 3.4

----------
- SYSTEM: Translocator protein (TSPO) (Homo sapiens, UniProt P30536)
- Sequence (P30536 whole entry): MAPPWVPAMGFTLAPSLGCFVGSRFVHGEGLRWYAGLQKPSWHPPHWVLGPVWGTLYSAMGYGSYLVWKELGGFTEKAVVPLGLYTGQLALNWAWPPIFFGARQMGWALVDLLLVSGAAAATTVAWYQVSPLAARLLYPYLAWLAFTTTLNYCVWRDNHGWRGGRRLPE
REPORTED_METRIC: Kd (µM)
Supply the numeric figure in µM, leaving out any unit text.

Challenge: What value of Kd has been reported for the following compound? CN1C(=O)CN=C(c2ccccc2F)c2cc([N+](=O)[O-])ccc21 [Flu, flunitrazepam]
Response given: 0.29

----------
- SYSTEM: SUR
- METHOD: Frontal affinity chromatography on MMAC-OT
- Type: binding, human
- ASSAY_SETUP: read-out: Kd on MMAC-OT (HEK-293); SUR ligand; open tubular column
REPORTED_METRIC: Kd

Challenge: What value of Kd has been reported for the following molecule? COc1ccc(Cl)cc1C(=O)NCCc1ccc(S(=O)(=O)NC(=O)NC2CCCCC2)cc1 [Glibenclamide, glibenclamide]
Response given: 990 nM

----------
- SYSTEM: UniProt:P30536
REPORTED_METRIC: pKd
# log scale: pKd equals minus log10 of the concentration in mol/L

Challenge: What value of pKd has been reported for the following compound? OCCN(CCO)c1nc(N2CCCCC2)c2nc(N(CCO)CCO)nc(N3CCCCC3)c2n1
Response given: 6.12

Data origin, for the record: paper PMC4512758
